- Protocol summary: Metabolic stability in mouse liver S9 fraction assessed as compound remaining after 30 mins
- Assay type: ADME, subcellular
- Experimental setup: read-out: Stability
Quantity name: remaining at 0.5 h (%)

Compound | Endpoint unit | Numeric result
COc1ccc(NC(=O)CN(c2ccccc2OC)S(=O)(=O)c2ccc(Cl)cc2)c(OC)c1 | % | 0.4
COc1ccc(S(=O)(=O)N(CC(=O)Nc2cc(OC)ccc2OC)c2ccccc2OC)cc1 | % | 0.4
CCOc1ccccc1NC(=O)CN(c1ccccc1OC)S(=O)(=O)c1ccc(C)cc1 | % | 0.7
COc1ccc(CCN(C)CCCC(C#N)(c2ccc(OC)c(OC)c2)C(C)C)cc1OC (configuration not stated) | % | 23.1
COc1ccncc1NC(=O)CN(c1ccccc1OC)S(=O)(=O)c1ccc(C)cc1 | % | 61.2
COC(=O)c1ccccc1NC(=O)CN(c1ccccc1OC)S(=O)(=O)c1ccc(C)cc1 | % | 0.3
CC(=O)Nc1ccc(O)cc1 | % | 97.7
